Assay: soluble fraction after stress (log2 fold change); higher = more stays soluble; pooled small domains, quantitative proteomics;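 also: 20 min heating vs room temperature control held 20 min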
Details: stress: 75 degC
propertyLabel: soluble fraction (log2)

INSERT INTO measurements (seqstring, measurednumber) VALUES
  ('HMELQYSQEIEEAQKILENLGLYRGEIDGINGINTKSAIREFQRKSGLVVDGILGPNTTNALSKGSDAYIT', 0.0481),
  ('HMVWNVEQIKRAVDQLPDGYRVVFTLYLFEGYDHREIADILGISEGGSKSQFNRAKSKLKEILTAMS', -2.19),
  ('HMVPTYEAYVGKEGLVVGTLRPAGTAEFDGERLDVVSEGEYLEAGTRVQIVRTEGRRIVVRKIN', -0.275),
  ('HMISVTNRTGTGLNDVKVEVFPVGRQMVFSATVFRVESEATNRFSLGELRGSDGTPFNQRVHRPESI', -0.184),
  ('HMLSKEFRFFTYLLESYAQHKNTTAGAVLKTLDEKGLTDFVYKMYDLYHVEAIENAYMDLDSLIATGKPA', -3.64),
  ('HMAHKRVDGTIVTPLTADTIVLRTGTHGEQPFEIRDTTRHKLESLQKGDMVILLIDTDNKVIDVAIPP', 0.373),
  ('HMAPRSSAVYFYLSQVALKKNQPRKAEAMARRGLTVSQDANRRRALWQLILRSGQAQNNTRVIREAQQAL', -0.0212),
  ('HMYLYADIYKKLEEKIKNMEVGEKLPSERAMVQEYGVSRNVLREALVLLSERGLIEIRPGKGSYVTNQQ', -1.17);

These data points were gathered from the domain aggregation screens of Martell et al. (2025).
